measured-target: CDK4/CyclinD1 (Homo sapiens, UniProt P11802)
Sequence (P11802 whole entry, species assumed): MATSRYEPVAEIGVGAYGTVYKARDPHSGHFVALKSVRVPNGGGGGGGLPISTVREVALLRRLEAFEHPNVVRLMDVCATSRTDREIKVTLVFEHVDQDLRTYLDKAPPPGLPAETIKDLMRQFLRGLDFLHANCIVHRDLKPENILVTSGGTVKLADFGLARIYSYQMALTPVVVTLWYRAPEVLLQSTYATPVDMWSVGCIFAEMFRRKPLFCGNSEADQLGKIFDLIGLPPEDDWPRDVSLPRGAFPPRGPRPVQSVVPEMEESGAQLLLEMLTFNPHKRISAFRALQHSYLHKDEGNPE
Sequence (P24385 whole entry partner, species assumed): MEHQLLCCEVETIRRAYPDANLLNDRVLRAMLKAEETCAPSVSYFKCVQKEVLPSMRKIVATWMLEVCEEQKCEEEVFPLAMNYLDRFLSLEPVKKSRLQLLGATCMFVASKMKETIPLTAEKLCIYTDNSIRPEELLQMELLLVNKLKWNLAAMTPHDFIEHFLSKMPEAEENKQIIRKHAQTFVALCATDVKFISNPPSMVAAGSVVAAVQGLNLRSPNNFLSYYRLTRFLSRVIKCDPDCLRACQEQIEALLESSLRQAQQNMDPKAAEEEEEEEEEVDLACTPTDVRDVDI
test-protocol: CDK4/CyclinD1 Flashplate assay, 96-well format, biotinylated-Rb peptide substrate
pIC50: −log10 of the molar value.
experimental-readout: pIC50

> print(dat)
                            compound.smiles                           measured.target  experimental.readout  test.result
1  Nc1nc2cc(OS(=O)(=O)c3ccc(NC4CCCC4)cc3)ccc2[nH]1  CDK4/CyclinD1 (Homo sapiens, UniProt P11802)                 pIC50         5.75

P = O=C(NCCCN1CCCC1=O)Nc1nc2cc(OS(=O)(=O)c3ccc(NC4CCCC4)cc3)ccc2[nH]1
Q = COC(=O)Nc1nc2cc(OS(=O)(=O)c3cccc(C(F)(F)F)c3)ccc2[nH]1
R = O=C(NCc1cccnc1)Nc1nc2cc(OS(=O)(=O)c3ccc(NC4CCCC4)cc3)ccc2[nH]1
Order the 3 molecules from highest to lowest pIC50. Answer with the labels in sequence, matching the requested order.
P, R, Q
(P: 6.77, R: 6.30, Q: 5.92)

---

measured-target: CDK4/CyclinD1 (Homo sapiens)
test-protocol: CDK4/CyclinD1 Flashplate assay, 96-well format, biotinylated-Rb peptide substrate
pIC50: −log10 of the molar value.
experimental-readout: pIC50

> print(dat)
                                   compound  experimental.readout  test.result
1  O=C(Nc1ccccc1)Nc1nc2cc(OS(=O)(=O)c3ccc(-n4ccnc4)cc3)ccc2[nH]1                 pIC50         6.00
2  COC(=O)CNC(=O)Nc1nc2cc(OS(=O)(=O)c3ccc(NC4CCCC4)cc3)ccc2[nH]1                 pIC50         7.54
3  CCN(CC)CCCNC(=O)COc1ccc(S(=O)(=O)Oc2ccc3[nH]c(NC(=O)OC)nc3c2)cc1                 pIC50         5.52
4  COC(=O)[C@H](CO)NC(=O)Nc1nc2cc(OS(=O)(=O)c3ccc(NC4CCCC4)cc3)ccc2[nH]1                 pIC50         6.70
5  O=C(Nc1nc2cc(OS(=O)(=O)c3ccc(NCCCO)cc3)ccc2[nH]1)C1CC1                 pIC50         6.05
6  NC(=O)[C@H]1CCCN1c1ccc(S(=O)(=O)Oc2ccc3[nH]c(NC(=O)C4CC4)nc3c2)cc1                 pIC50         5.60

a = O=C(NCCCn1ccnc1)Nc1nc2cc(OS(=O)(=O)c3ccc(NC4CCCC4)cc3)ccc2[nH]1
b = CC(C)CNC(=O)Nc1nc2cc(OS(=O)(=O)c3ccc(NC4CCCC4)cc3)ccc2[nH]1
Could you point out whether the larger pIC50 belongs to a or to b ? Please indicate the selected item by its label.
a
(a: 6.22, b: 5.72)

I = COC(=O)Nc1nc2cc(OS(=O)(=O)c3ccc(F)cc3F)ccc2[nH]1
II = COC(=O)Nc1nc2cc(OS(=O)(=O)c3ccc(NCC(C)O)cc3)ccc2[nH]1 (stereo not shown)
Compare reported pIC50 values for I and II . Which is lower? Answer by stating the label of the chosen item.
II
(II: 5.70, I: 6.15)

---

measured-target: CDK2/CyclinE (Homo sapiens)
test-protocol: CDK2/CyclinE Flashplate assay, 96-well format, biotinylated-Rb peptide substrate
Format: biochemical
experimental-readout: IC50 (nM)

> print(dat)
                                   molecule  test.result
1  O=C(Nc1nc2cc(OS(=O)(=O)c3ccc(NC4CCCC4)cc3)ccc2[nH]1)Nc1ccccc1F          450
2  CCN1CCCC1CNC(=O)Nc1nc2cc(OS(=O)(=O)c3ccc(NCC4CCCO4)cc3)ccc2[nH]1 (stereo not shown)           60
3  COc1ccc(Nc2nc3cc(OS(=O)(=O)c4ccc(NC5CCCC5)cc4)ccc3[nH]2)cc1          300

a = CN1CCN(CCCNC(=O)Nc2nc3cc(OS(=O)(=O)c4ccc(-n5ccnc5)cc4)ccc3[nH]2)CC1
b = CN1CCN(c2ccc(Nc3nc4cc(OS(=O)(=O)c5ccc(NC6CCCC6)cc5)ccc4[nH]3)cc2)CC1
Pick one, a or b : lowest reported IC50. Output the label that corresponds to your choice.
b
(b: 250 nM, a: 600 nM)

---

measured-target: CDK4/CyclinD1 (Homo sapiens)
test-protocol: CDK4/CyclinD1 Flashplate assay, 96-well format, biotinylated-Rb peptide substrate
experimental-readout: IC50 (nM)

Solved cases (4 shown):
> print(dat)
                                   compound  measurement.units  test.result
1  CN(C)c1ccc(Nc2nc3cc(OS(=O)(=O)c4ccc(NC5CCCC5)cc4)ccc3[nH]2)cc1 [Example 70-e]                 nM          500
2  O=C(NCCCO)Nc1nc2cc(OS(=O)(=O)c3ccc(NC4CCCC4)cc3)ccc2[nH]1 [Example 58-y]                 nM          270
3  O=C(Nc1nc2cc(OS(=O)(=O)c3ccc(NC4CCCC4)cc3)ccc2[nH]1)Nc1ccccc1F [Example 37]                 nM          570
4  O=C(O)CNC(=O)Nc1nc2cc(OS(=O)(=O)c3ccc(NC4CCCC4)cc3)ccc2[nH]1 [Example 46]                 nM           12

P = O=C(Nc1nc2cc(OS(=O)(=O)c3ccc(NC4CCC(O)CC4)cc3)ccc2[nH]1)C1CC1 (stereo not shown) [Example 60-p]
Q = COC(=O)Nc1nc2cc(OS(=O)(=O)c3ccc(NC(C)C)cc3)ccc2[nH]1 [Example 10]
Could you please tell me which of these two has the higher IC50: P or Q ? # answer = label of selected item
P
(P: 1200 nM, Q: 700 nM)

---

measured-target: CDK4/CyclinD1 (Homo sapiens, UniProt P11802)
test-protocol: CDK4/CyclinD1 Flashplate assay, 96-well format, biotinylated-Rb peptide substrate
pIC50: −log10 of the molar value.
experimental-readout: pIC50

Consider the following illustrative entries.
> print(dat)
                                   compound  experimental.readout  test.result
1  O=C(Nc1nc2cc(OS(=O)(=O)c3ccc(NC4CCCC4)cc3)ccc2[nH]1)NC1CC1                 pIC50         6.19
2  COC(=O)Nc1nc2cc(OS(=O)(=O)c3ccc(NCc4ccccn4)cc3)ccc2[nH]1                 pIC50         5.95
3  O=C(NCCN1CCCCC1)Nc1nc2cc(OS(=O)(=O)c3ccc(NCC4CCCO4)cc3)ccc2[nH]1 (stereo not shown)                 pIC50         5.74

I = COC(=O)Nc1nc2cc(OS(=O)(=O)c3ccccc3F)ccc2[nH]1
II = O=C(Nc1nc2cc(OS(=O)(=O)c3ccc(NC4CCCC4)cc3)ccc2[nH]1)C1CC1
Which record shows the lower pIC50: the first, I , or the second, II ? // return label of chosen record
I

I = O=C(NCc1ccccc1)Nc1nc2cc(OS(=O)(=O)c3ccc(-n4ccnc4)cc3)ccc2[nH]1
II = CCC(C)(C)NC(=O)Nc1nc2cc(OS(=O)(=O)c3ccc(NC4CCCC4)cc3)ccc2[nH]1
Given the listed records, identify the one among I and II with higher pIC50. Choose, then provide that item's label.
I
(I: 6.00, II: 5.65)

P = O=C(NCCS(=O)(=O)O)Nc1nc2cc(OS(=O)(=O)c3ccc(-n4ccnc4)cc3)ccc2[nH]1
Q = O=C(NCCN1CCCC1)Nc1nc2cc(OS(=O)(=O)c3ccc(NC4CCCC4)cc3)ccc2[nH]1
Just curious, which one has the larger pIC50 reading, P or Q ? Kindly state the label of the option you pick.
Q
(Q: 6.48, P: 6.10)

---

measured-target: CDK4/CyclinD1 (Homo sapiens)
test-protocol: CDK4/CyclinD1 Flashplate assay, 96-well format, biotinylated-Rb peptide substrate
pIC50: −log10 of the molar value.
experimental-readout: pIC50

# example entries with known answers
> print(dat)
                                   compound               measured.target  test.result
1  CC(C)NC(=O)Nc1nc2cc(OS(=O)(=O)c3ccc(NC4CCCC4)cc3)ccc2[nH]1 [Example 34]  CDK4/CyclinD1 (Homo sapiens)         5.93
2  O=C(Nc1nc2cc(OS(=O)(=O)c3ccc(NC4CCCC4)cc3)ccc2[nH]1)N[C@H]1CC[C@H](O)CC1 [Example 58-x]  CDK4/CyclinD1 (Homo sapiens)         6.51
3  O=C(NCCO)Nc1nc2cc(OS(=O)(=O)c3ccc(NCC4CCCO4)cc3)ccc2[nH]1 (stereo not shown) [Example 59-b]  CDK4/CyclinD1 (Homo sapiens)         6.52

I = O=C(Nc1nc2cc(OS(=O)(=O)c3ccc(NCC4CCCO4)cc3)ccc2[nH]1)NC1CCC1 (stereo not shown) [Example 59-o]
II = COC(=O)Nc1nc2cc(OS(=O)(=O)c3ccc(N)cc3)ccc2[nH]1 [Example 16]
III = O=C(NCCCN1CCCC1=O)Nc1nc2cc(OS(=O)(=O)c3ccc(NCC4CCCO4)cc3)ccc2[nH]1 (stereo not shown) [Example 59-p]
IV = COC(=O)Nc1nc2cc(OS(=O)(=O)c3ccc(NC4CCCC4)cc3)ccc2[nH]1 [Example 19]
V = COC(=O)Nc1nc2cc(OS(=O)(=O)c3ccc(-n4ccnc4)cc3)ccc2[nH]1 [Example 4]
Hello, I need these entries ordered by pIC50, highest reading first. Thanks! Write the labels in rank order as requested.
III, II, I, IV, V
(III: 6.74, II: 6.43, I: 6.10, IV: 5.53, V: 5.20)

1 = O=C(NCc1cccc(F)c1)Nc1nc2cc(OS(=O)(=O)c3ccc(NC4CCCC4)cc3)ccc2[nH]1 [Example 41]
2 = NC(=O)CNC(=O)Nc1nc2cc(OS(=O)(=O)c3ccc(NC4CCCC4)cc3)ccc2[nH]1 [Example 58-s]
Given the listed items, does 1 or 2 have the lesser reported pIC50? Lab note: record the label of whichever item you select.
1

A = O=C(NCCN1CCCC1)Nc1nc2cc(OS(=O)(=O)c3ccc(NCC4CCCO4)cc3)ccc2[nH]1 (stereo not shown) [Example 59-g]
B = COc1ccc(Nc2nc3cc(OS(=O)(=O)c4ccc(NC5CCCC5)cc4)ccc3[nH]2)cc1 [Example 70-d]
Could you please tell me which of these two has the higher pIC50: A or B ? Please identify the chosen entry by its label.
B
(B: 6.19, A: 5.74)

1 = COC(=O)Nc1nc2cc(OS(=O)(=O)c3ccc(NCC4CCCO4)cc3)ccc2[nH]1 (stereo not shown) [Example 18]
2 = COCCNc1ccc(S(=O)(=O)Oc2ccc3[nH]c(NC(=O)NCCN4CCOCC4)nc3c2)cc1 [Example 78-e]
3 = O=C(NCCN1CCCCC1)Nc1nc2cc(OS(=O)(=O)c3ccc(NC4CCCC4)cc3)ccc2[nH]1 [Example 58-aj]
Sort ascending by pIC50. // ordering of labels required in reply
1, 2, 3
